- subject of test: Collagenase 3 (Homo sapiens)
- protocol details: Inhibition of human recombinant MMP-13 using Mca-Lys-Pro-Leu-GlyLeu-Dpa-Ala-Arg-NH2 as substrate preincubated for 30 mins followed by substrate addition by fluorescence based analysis
value type: IC50 (nM)

# annotated cases, reported IC50 shown
- COc1cccc(CNC(=O)c2nc3ccc(F)c(F)c3c(=O)[nH]2)c1: 118
- COc1ccc(CNC(=O)c2nc3ccc(F)c(F)c3c(=O)[nH]2)cc1: 313
- O=C(O)c1ccc(CCOc2c(F)ccc3nc(C(=O)NCc4cccc(O)c4)[nH]c(=O)c23)cc1: 1.3
- Cc1cc(CNC(=O)c2cc(C(=O)NCc3ccc(OCCF)cc3)ncn2)ccc1F: 52

I = Cc1cc(CNC(=O)c2nc3ccc(F)c(OCCc4ccc(C(=O)O)cc4)c3c(=O)[nH]2)ccc1F
II = COc1ccc(CCOc2c(F)ccc3nc(C(=O)NCc4ccc(F)c(C)c4)[nH]c(=O)c23)cc1
stdin: Of I and II , which shows the smaller IC50 value? Record your answer as the label of the chosen record.
stdout: I

1 = Cc1cc(CNC(=O)c2nc3ccc(F)c(F)c3c(=O)[nH]2)ccc1F
2 = COc1ccc(CNC(=O)c2nc3ccc(F)c(OCCc4ccc(C(=O)O)cc4)c3c(=O)[nH]2)cc1
3 = COc1cccc(CNC(=O)c2nc3ccc(F)c(OCCc4ccc(C(=O)O)cc4)c3c(=O)[nH]2)c1
stdin: Rank the 3 compounds: largest IC50 first, smallest last. Could you list the labels in the order requested?
stdout: 1, 2, 3
(1: 106 nM, 2: 2.9 nM, 3: 1.3 nM)
